Target: cathepsin L (Capra hircus)
pKi values by entry
pKi is defined as minus the log10 of a concentration measured in mol/L.

Please review the following examples before continuing.
{"columns": ["molecule", "result-value"],
 "data": [
  ["NC(=O)N/N=C(/C=C/c1ccccc1Cl)c1ccccc1", 8.75],
  ["Cc1ccc(C2CC(c3ccccc3)=NN2C(N)=O)cc1 (stereo not drawn)", 7.63],
  ["NC(=O)N/N=C(\\C=C\\c1ccccc1Cl)c1ccccc1", 10.40],
  ["COc1ccccc1C1CC(c2ccccc2)=NN1C(N)=O (stereo not drawn)", 6.66]
]}

For the record `O=C(/C=C/c1cccc([N+](=O)[O-])c1)c1ccccc1` , what value of pKi is listed for cathepsin L (Capra hircus)?
8.69

For the record `NC(=O)N/N=C(\C=C\c1ccc(Cl)cc1)c1ccccc1` , what value of pKi is listed for cathepsin L (Capra hircus)?
9.03

For the record NC(=O)N1N=C(c2ccccc2)CC1c1cccc([N+](=O)[O-])c1 (stereo not drawn) , what value of pKi is listed for cathepsin L (Capra hircus)?
9.40

For the record `O=C(/C=C/c1cccc(Cl)c1)c1ccccc1` , what value of pKi is listed for cathepsin L (Capra hircus)?
10.40
